Molecular target: T1, TNFR1 on THP-1 Lucia NF-κB cells (UniProt P19438 30-455, limits assumed)
T1 sequence (looked up): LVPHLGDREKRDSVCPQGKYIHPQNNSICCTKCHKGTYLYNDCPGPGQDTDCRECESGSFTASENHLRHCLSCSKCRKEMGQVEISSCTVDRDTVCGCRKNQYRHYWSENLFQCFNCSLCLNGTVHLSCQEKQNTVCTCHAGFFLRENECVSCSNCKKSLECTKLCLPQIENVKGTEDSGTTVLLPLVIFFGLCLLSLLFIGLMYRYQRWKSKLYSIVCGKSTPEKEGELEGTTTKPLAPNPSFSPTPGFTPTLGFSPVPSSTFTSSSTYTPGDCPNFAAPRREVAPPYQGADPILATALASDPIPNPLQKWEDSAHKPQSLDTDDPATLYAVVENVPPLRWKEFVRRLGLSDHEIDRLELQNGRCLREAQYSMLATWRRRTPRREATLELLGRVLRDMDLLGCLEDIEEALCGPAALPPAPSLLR
Assay: cell-based or functional assay
Bridge positions count the residues as written; N and C are the ends. Square brackets hold non-standard residues; d marks the D form. Trp(βS-Me,7-OMe) = COc1cccc2c([C@H](C)[C@H](N)C(=O)O)c[nH]c12; Trp(7-Cl) = N[C@@H](Cc1c[nH]c2c(Cl)cccc12)C(=O)O; Phe(4-CONH2) = NC(=O)c1ccc(C[C@H](N)C(=O)O)cc1; Phe(4-COOH) = N[C@@H](Cc1ccc(C(=O)O)cc1)C(=O)O; Trp(7-aza) = N[C@@H](Cc1c[nH]c2ncccc12)C(=O)O; 4Pal = N[C@@H](Cc1ccncc1)C(=O)O; NMeE = CN[C@@H](CCC(=O)O)C(=O)O; Morpip6diMe = not defined here; dbhcLeu = not defined here; 2SBrBu = not defined here; αMeS = C[C@](N)(CO)C(=O)O; Nle = CCCC[C@H](N)C(=O)O; Spip = not defined here; Bhv = not defined here; Sar = CNCC(=O)O
METRIC_NAME: THP-1 IC50 (nM)
Use nM as the unit, but write only the number.

{CH2CO}-[Nle][PyrimAla][Bhv][Trp(7-aza)][NMeE]N[4Pal][Trp(7-Cl)][αMeS][Phe(4-COOH)]Y[Sar][Trp(βS-Me,7-OMe)]C-NH2 (thioether N-14; reading uncertain; also: printed as cyclo(ClAc-Nle-PyrimAla-Bhv-Trp7az-NMeE-N-4Pal-Trp7Cl-aMeS-Phe4COOH-Y-Sar-SbMeW7OMe-C)-NH2) [SEQ ID NO. 177]    3.3
cyclo([dbhcLeu][Nle][4Pal][Morpip6diMe]W[NMeE]N[4Pal][Trp(7-Cl)][αMeS][Phe(4-CONH2)]Y[Sar][Trp(βS-Me,7-OMe)]) (reading uncertain; also: printed as cyclo(dbhcLeu-Nle-4Pal-Morpip6diMe-W-NMeE-N-4Pal-Trp7Cl-aMeS-Phe4CONH2-Y-Sar-SbMeW7OMe)) [SEQ ID NO. 214]    3.7

In: Kindly indicate its recorded THP-1 IC50. Item: 2SBrBu-[Nle][4Pal][Spip]W[NMeE]N[4Pal][Trp(7-Cl)][αMeS][Phe(4-CONH2)]Y[Sar][Trp(βS-Me,7-OMe)]C-NH2 (thioether N-14; reading uncertain; also: printed as cyclo(2SBrBu-Nle-4Pal-Spip-W-NMeE-N-4Pal-Trp7Cl-aMeS-Phe4CONH2-Y-Sar-SbMeW7OMe-C)-NH2) [SEQ ID NO. 246]
Out: 4.3

Values were extracted from patent US20240287138A1.
